Quick note: these are MIC numbers for system: Candida albicans ATCC 10231

{"Compound": "CSCC[C@H](NC(=O)[C@H](C)NC(=O)[C@H](CCCN=C(N)N)NC(=O)[C@H](CCCCN)NC(=O)[C@H](Cc1c[nH]c2ccccc12)NC(=O)[C@H](CCC(N)=O)NC(=O)[C@H](Cc1ccccc1)NC(=O)[C@@H](N)CS)C(=O)N[C@@H](CCCN=C(N)N)C(=O)N[C@@H](CCCCN)C(=O)N[C@H](C(=O)N[C@@H](CCCN=C(N)N)C(N)=O)C(C)C [CFQWKRAMRKVR]", "MIC": "> 155 µM"}

Input: So what MIC did CC[C@H](C)[C@H](N)C(=O)N[C@@H](CC(N)=O)C(=O)N1CCC[C@H]1C(=O)N[C@@H](CCCCN)C(=O)N[C@@H](CO)C(=O)N[C@H](C(=O)N[C@@H](CCC(N)=O)C(=O)N[C@@H](CO)C(=O)N[C@@H](CC(C)C)C(=O)N[C@@H](CC(C)C)C(N)=O)C(C)C [INPKSVQSLL] get with Candida albicans ATCC 10231?
Output: > 200 µM

---

test system: Pseudomonas aeruginosa ATCC 9027; assay: ≥ marks a high value that may be exact or a test limit, other limits are often not marked, values filed in µg/mL are converted to µM
Measured Endpoint: MIC (µM)
Write the answer as a number in µM, unit excluded.

Input: Looking for the measured MIC of CC(C)C[C@H](NC(=O)[C@H](C)NC(=O)[C@H](CC(C)C)NC(=O)[C@H](CC(C)C)NC(=O)[C@H](CCCCN)NC(=O)[C@H](CCCCN)NC(=O)[C@H](C)NC(=O)[C@H](CC(C)C)NC(=O)[C@H](CCCCN)NC(=O)[C@H](C)NC(=O)[C@H](CC(C)C)NC(=O)[C@H](CCCCN)NC(=O)[C@H](CCCCN)NC(=O)[C@H](C)NC(=O)[C@@H](N)Cc1ccccc1)C(N)=O , can you help?
Output: 30.2

---

Catalogue of MIC values
test system: Salmonella sp.
Write the answer as a number in µM, unit excluded.

Before answering, review these 2 worked examples.
{"Molecule": "CC[C@H](C)[C@H](NC(=O)[C@H](CCCCN)NC(=O)[C@@H](NC(=O)[C@H](CCCN=C(N)N)NC(=O)[C@H](CCCN=C(N)N)NC(=O)[C@H](CCSC)NC(=O)[C@H](CCCCN)NC(=O)[C@H](Cc1c[nH]c2ccccc12)NC(=O)[C@@H](N)CCCN=C(N)N)[C@@H](C)CC)C(=O)N[C@@H](CCC(N)=O)C(=O)N[C@@H](CCCN=C(N)N)C(N)=O [RWKMRRIKIQR]", "Result Unit": "µM", "MIC": 31.8}
{"Molecule": "CC[C@H](C)[C@H](NC(=O)[C@H](CCCCN)NC(=O)[C@@H](NC(=O)[C@H](CCC(N)=O)NC(=O)[C@@H](N)CCCN=C(N)N)[C@@H](C)CC)C(=O)N[C@@H](CCCN=C(N)N)C(=O)N[C@@H](CCCN=C(N)N)C(=O)N[C@@H](CCSC)C(=O)N[C@@H](CCCCN)C(=O)N[C@@H](Cc1c[nH]c2ccccc12)C(=O)N[C@@H](CCCN=C(N)N)C(N)=O [RQIKIRRMKWR]", "Result Unit": "µM", "MIC": 3.18}

Could you now look at the following molecule, please?
Input: So what MIC did CC[C@H](C)[C@H](NC(=O)[C@H](CCC(N)=O)NC(=O)[C@@H](N)CCCN=C(N)N)C(=O)N[C@@H](Cc1c[nH]c2ccccc12)C(=O)N[C@@H](Cc1c[nH]c2ccccc12)C(=O)N[C@@H](Cc1c[nH]c2ccccc12)C(=O)N[C@@H](Cc1c[nH]c2ccccc12)C(=O)N[C@@H](CCC(N)=O)C(=O)N[C@@H](CCCN=C(N)N)C(N)=O [RQIWWWWQR] get with Salmonella sp.?
Output: 4.33

---

Catalogue of MIC values
system: Enterococcus faecalis NCTC 12697
Write the answer as a number in µM, unit excluded.

{"Structure Smiles String": "CC[C@H](C)[C@H](NC(=O)CNC(=O)CNC(=O)[C@H](C)NC(=O)[C@@H](NC(=O)[C@H](CCCCN)NC(=O)[C@@H]1CCCN1C(=O)[C@@H](NC(=O)[C@H](CC(C)C)NC(=O)[C@H](CO)NC(=O)[C@H](CC(C)C)NC(=O)[C@@H](N)Cc1ccccc1)[C@@H](C)CC)[C@@H](C)CC)C(=O)N[C@@H](C)C(=O)N[C@@H](C)C(=O)N[C@@H](CC(C)C)C(=O)N[C@@H](C)C(=O)N[C@@H](CCCCN)C(=O)N[C@@H](Cc1cnc[nH]1)C(=O)N[C@@H](CC(C)C)C(N)=O", "MIC / µM": 16.6}

Input: So what MIC did CC[C@H](C)[C@H](NC(=O)[C@H](Cc1ccc(O)cc1)NC(=O)[C@H](CC(C)C)NC(=O)[C@@H](N)Cc1ccccc1)C(=O)N[C@H](C(=O)N[C@@H](C)C(=O)N[C@@H](CCCCN)C(=O)N[C@@H](CC(C)C)C(=O)N[C@@H](CC(C)C)C(=O)N[C@@H](CO)C(=O)NCC(=O)N[C@@H](CC(C)C)C(=O)N[C@@H](CC(C)C)C(N)=O)C(C)C get with Enterococcus faecalis NCTC 12697?
Output: 2

---

system: Pseudomonas aeruginosa ATCC 9027; experiment: ≥ marks a high value that may be exact or a test limit, other limits are often not marked, values filed in µg/mL are converted to µM
Measured Endpoint: MIC (µM)
Write the answer as a number in µM, unit excluded.

Before answering, review these 2 worked examples.
{"Structure Smiles String": "CC[C@H](C)[C@H](NC(=O)[C@H](CCCCN)NC(=O)[C@H](CCCCN)NC(=O)[C@H](C)NC(=O)[C@@H](NC(=O)[C@H](C)NC(=O)[C@H](CC(C)C)NC(=O)[C@H](CC(C)C)NC(=O)[C@H](C)NC(=O)[C@H](CCCCN)NC(=O)[C@H](CC(C)C)NC(=O)[C@H](C)NC(=O)[C@@H](N)CC(C)C)C(C)C)C(=O)N[C@@H](CC(C)C)C(N)=O", "MIC, µM": 8}
{"Structure Smiles String": "CC[C@H](C)[C@H](NC(=O)[C@H](CCCCN)NC(=O)[C@H](CCCCN)NC(=O)[C@H](C)NC(=O)[C@@H](NC(=O)[C@H](C)NC(=O)[C@H](CC(C)C)NC(=O)[C@H](CC(C)C)NC(=O)[C@H](C)NC(=O)[C@H](C)NC(=O)[C@H](CC(C)C)NC(=O)[C@H](CC(N)=O)NC(=O)[C@@H](N)CC(C)C)C(C)C)C(=O)N[C@@H](CC(C)C)C(N)=O", "MIC, µM": 32}

Could you now look at the following molecule, please?
Input: Looking for the measured MIC of CC(C)C[C@H](NC(=O)[C@H](C)NC(=O)[C@H](Cc1ccccc1)NC(=O)[C@H](CCCCN)NC(=O)[C@H](CCCCN)NC(=O)[C@H](C)NC(=O)[C@H](CC(C)C)NC(=O)[C@H](CCCCN)NC(=O)[C@H](C)NC(=O)[C@H](CC(C)C)NC(=O)[C@H](CC(C)C)NC(=O)[C@H](CCCCN)NC(=O)[C@H](C)NC(=O)[C@@H](N)Cc1ccccc1)C(N)=O , can you help?
Output: 128

---

system: Micrococcus luteus
Catalogue of MIC values
Write the answer as a number in µM, unit excluded.

{"Structure Smiles String": "CC(C)C[C@H](NC(=O)[C@H](Cc1c[nH]c2ccccc12)NC(=O)CNC(=O)[C@H](CC(C)C)NC(=O)[C@@H](N)Cc1ccccc1)C(=O)N[C@@H](Cc1ccccc1)C(=O)N[C@@H](CCCCN)C(=O)N[C@H](C(=O)N[C@@H](C)C(=O)N[C@@H](CO)C(=O)N[C@@H](CCCCN)C(=O)O)C(C)C", "Measured Endpoint": "MIC", "Result Unit": "µM", "Observed": 19.3}
{"Structure Smiles String": "CC(C)C[C@H](NC(=O)[C@H](C)NC(=O)CNC(=O)[C@H](CC(C)C)NC(=O)[C@@H](N)Cc1ccccc1)C(=O)N[C@@H](Cc1ccccc1)C(=O)N[C@@H](CCCCN)C(=O)N[C@@H](CC(C)C)C(=O)N[C@@H](C)C(=O)N[C@@H](CO)C(=O)N[C@@H](CCCCN)C(=O)O", "Measured Endpoint": "MIC", "Result Unit": "µM", "Observed": 10.5}

Could you now look at the following compound, please?
Input: Looking for the measured MIC of CC(C)C[C@H](N)C(=O)N[C@H](C(=O)N[C@@H](CCCN=C(N)N)C(=O)NCC(=O)N[C@H]1CSSC[C@@H](C(=O)N[C@@H](Cc2ccccc2)C(=O)N[C@H](C(=O)N[C@@H](CCCN=C(N)N)C(N)=O)C(C)C)NC(=O)[C@@H]2CCCN2C(=O)[C@H](CCCCN)NC(=O)[C@@H]2CCCN2C(=O)[C@@H]2CCCN2C(=O)[C@H](Cc2ccc(O)cc2)NC(=O)[C@H](CO)NC(=O)[C@H](CCCCN)NC(=O)[C@H]([C@@H](C)O)NC(=O)[C@H](Cc2c[nH]c3ccccc23)NC1=O)C(C)C , can you help?
Output: 10
